src = patent US9486491B2

# TARGET_ENTITY: DPP-4 (derived from porcine kidney) (Sus scrofa)
# Construct: purchased Sigma; host or cells: porcine kidney (tissue-derived enzyme)
# Sequence (P22411 whole entry): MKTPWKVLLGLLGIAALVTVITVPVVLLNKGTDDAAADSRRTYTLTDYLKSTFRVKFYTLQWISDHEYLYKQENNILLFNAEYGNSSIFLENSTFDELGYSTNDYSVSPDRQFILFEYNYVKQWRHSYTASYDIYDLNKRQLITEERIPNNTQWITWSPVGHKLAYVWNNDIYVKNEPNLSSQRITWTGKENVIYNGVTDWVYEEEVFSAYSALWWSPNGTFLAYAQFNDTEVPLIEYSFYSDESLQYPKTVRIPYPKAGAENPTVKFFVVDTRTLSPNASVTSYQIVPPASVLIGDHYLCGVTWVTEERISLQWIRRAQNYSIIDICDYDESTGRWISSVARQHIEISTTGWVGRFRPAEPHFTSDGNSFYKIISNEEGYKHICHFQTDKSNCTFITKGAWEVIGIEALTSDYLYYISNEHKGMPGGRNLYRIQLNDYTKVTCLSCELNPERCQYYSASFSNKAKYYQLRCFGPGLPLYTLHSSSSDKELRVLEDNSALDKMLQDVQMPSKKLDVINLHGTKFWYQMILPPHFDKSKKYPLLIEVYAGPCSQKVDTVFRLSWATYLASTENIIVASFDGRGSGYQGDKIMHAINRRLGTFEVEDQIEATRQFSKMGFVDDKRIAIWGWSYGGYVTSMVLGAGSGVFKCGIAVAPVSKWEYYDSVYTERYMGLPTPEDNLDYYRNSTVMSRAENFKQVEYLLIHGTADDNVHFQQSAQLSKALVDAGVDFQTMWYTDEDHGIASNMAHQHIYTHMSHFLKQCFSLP
# TEST_NAME: DPP-4 inhibition rate / IC50 value measurement (Gly-Pro-MCA fluorescence)
# Type: biochemical
# STUDY_CONDITIONS: individual oligopeptides
Non-standard residues stand in square brackets, D forms with d. Residues, ends and D or L forms follow the SMILES beside them. Hyp = O=C(O)[C@@H]1C[C@@H](O)CN1
MEASUREMENT_TYPE: IC50 value (µg/mL)
# number only, unit µg/mL dropped from output

Here are 3 molecules together with their reported answers.
CC(C)C[C@H](N)C(=O)N1C[C@H](O)C[C@H]1C(=O)NCC(=O)O [LeuHypGly] (H-Leu-[Hyp]-Gly-OH; N-terminus and C-terminus assumed) | 39
CC[C@H](C)[C@H](N)C(=O)N1C[C@H](O)C[C@H]1C(=O)NCC(=O)O [IleHypGly] (H-Ile-[Hyp]-Gly-OH; N-terminus and C-terminus assumed) | 150
C[C@H](N)C(=O)N1C[C@H](O)C[C@H]1C(=O)NCC(=O)O [AlaHypGly] (H-Ala-[Hyp]-Gly-OH; N-terminus and C-terminus assumed) | 2450

We now examine a further molecule.
Q. Report measured IC50 value on DPP-4 (derived from porcine kidney) (Sus scrofa); entry: CC(C)C[C@H](N)C(=O)N1C[C@H](O)C[C@H]1C(=O)NCC(=O)N1CCC[C@H]1C(=O)N[C@@H](C)C(=O)O [LeuHypGlyProAla] (H-L[Hyp]GPA-OH; N-terminus and C-terminus assumed)
A. 390
